Provide the reported MFIr (OE/Par) cTIGIT of each item.
Target: T1, cyno TIGIT on cells (cynomolgus macaque)
T1 construct: whole, on cells; also called Expi293 cyno TIGIT over-expressing cells
Experiment: flow cytometry of fab; MFI on cyno TIGIT over-expressing Expi293 / MFI on parental Expi293
Response field accepts a number only; no unit should be typed.

// CPA.9.093 (fab) (Fab, V domains shown, variant of CPA.9.027 screened as fab) VH: EVQLVETGGGLIQPGRSLRLSCAASGFTFSSYAMHWVRQAPGKGLEWVAVISYEGDRKYYADSVKGRFTISRDNSKNTLYLQMNSLRAEDTAVYYCARDPLPLHYYGMDVWGQGTTVTVSS VL: QSALTQPRSASGNPGQRVTISCSGSSSNMGRRPVNWYQQIPGTAPKLLIYSQNQRPSGVPDRFSGSQSGTSASLTISGLQSEDEAEYFCATWDDSTPHGVFGGGTKLAVL : MFIr (OE/Par) cTIGIT value = 60

// CPA.9.083 (fab) (Fab, V domains shown, variant of CPA.9.027 screened as fab) VH: EVQLVETGGGLIQPGRSLRLSCAASGFTFSSYAMHWVRQAPGKGLEWVAVISYDGTPVYYADSVKGRFTISRDNSKNTLYLQMNSLRAEDTAVYYCARDPLPLHYYGMDVWGQGTTVTVSS VL: QSALTQPRSASGNPGQRVTISCSGSSSNMGRRPVNWYQQIPGTAPKLLIYSQNQRPSGVPDRFSGSQSGTSASLTISGLQSEDEAEYFCAVWDGDRRSLQLGGGTQLAVLG : MFIr (OE/Par) cTIGIT value = 97

// CPA.9.089 (fab) (Fab, V domains shown, variant of CPA.9.027 screened as fab) VH: EVQLVETGGGLIQPGRSLRLSCAASGFTFSSYAMHWVRQAPGKGLEWVAVISYDRTPVYYADSVKGRFTISRDNSKNTLYLQMNSLRAEDTAVYYCARDPLPLHYYGMDVWGQGTTVTVSS VL: QSALTQPRSASGNPGQRVTISCSGSSSNMGRRPVNWYQQIPGTAPKLLIYSQNQRPSGVPDRFSGSQSGTSASLTISGLQSEDEAEYFCATWDDSLPRLNFGGGTKLAVL : MFIr (OE/Par) cTIGIT value = 52
